test: Aqueous solubility; format: physicochemical; settings: un-buffered water; read-out: SOLUBILITY CONCENTRATION
measured-quantity: solubility

get_value(item= CC(C)[C@H](Oc1ccc(Cl)cc1)[C@H]1CCNC1 , readout=solubility) returns > 10000 µg/mL

###

assay: Aqueous solubility; format: physicochemical; details: aqueous HCl, simulated gastric fluid; HCl pH 2.0; read-out: SOLUBILITY CONCENTRATION
measured-quantity: solubility

Recorded result, CC(C)[C@H](Oc1ccc(Cl)cc1)[C@H]1CCNC1 [Example 1] , solubility: > 10000 µg/mL

###

test: Aqueous solubility; type: physicochemical; details: phosphate buffer, aqueous buffer; 50 mM phosphate-buffered pH 7.4; read-out: SOLUBILITY CONCENTRATION
measured-quantity: solubility

Sure, the documented solubility for CC(C)[C@H](Oc1ccc(Cl)cc1)[C@H]1CCNC1 is > 10000 µg/mL
